- Test system: HeLa Kyoto
- Test protocol: thermal stability score vs G1/S (z-score of summed log2 fold changes over temperatures); higher = more thermally stable than in G1/S
- Settings: cell cycle stage: early G1 (4.5 h after nocodazole release)
Quick rule for you: thermal stability score at -0.02 or higher means rule met, lower means rule not met.

// inclusive: thermal stability score at least -0.02? input: MVDLTQVMDDEVFMAFASYATIILSKMMLMSTATAFYRLTRKVFANPEDCVAFGKGENAKKYLRTDDRVERVRRAHLNDLENIIPFLGIGLLYSLSGPDPSTAILHFRLFVGARIYHTIAYLTPLPQPNRALSFFVGYGVTLSMAYRLLKSKLYL [MGST1] rule met

Answer whether thermal stability score of MSAYPKSYNPFDDDGEDEGARPAPWRDARDLPDGPDAPADRQQYLRQEVLRRAEATAASTSRSLALMYESEKVGVASSEELARQRGVLERTEKMVDKMDQDLKISQKHINSIKSVFGGLVNYFKSKPVETPPEQNGTLTSQPNNRLKEAISTSKEQEAKYQASHPNLRKLDDTDPVPRGAGSAMSTDAYPKNPHLRAYHQKIDSNLDELSMGLGRLKDIALGMQTEIEEQDDILDRLTTKVDKLDVNIKSTERKVRQL [SNAP29] is greater than or equal to -0.02. rule not met

Could you tell me if the measured thermal stability score of MGGGWWWARAARLARLRFRRSLLPPQRPRSGGARGSFAPGHGPRAGASPPPVSELDRADAWLLRKAHETAFLSWFRNGLLASGIGVISFMQSDMGREAAYGFFLLGGLCVVWGSASYAVGLAALRGPMQLTLGGAAVGAGAVLAASLLWACAVGLYMGQLELDVELVPEDDGTASAEGPDEAGRPPPE [TMEM160] reaches -0.02 or more? rule not met

In plain terms: is recorded thermal stability score at least -0.02 for CREBBP ? rule not met

Textbook exercise: given the entry MAVVPLLLLGGLWSAVGASSLGVVTCGSVVKLLNTRHNVRLHSHDVRYGSGSGQQSVTGVTSVDDSNSYWRIRGKSATVCERGTPIKCGQPIRLTHVNTGRNLHSHHFTSPLSGNQEVSAFGEEGEGDYLDDWTVLCNGPYWVRDGEVRFKHSSTEVLLSVTGEQYGRPISGQKEVHGMAQPSQNNYWKAMEGIFMKPSELLKAEAHHAEL [SDF2] , state whether its thermal stability score is greater than or equal to -0.02. rule met

# check: thermal stability score of MASNVTNKTDPRSMNSRVFIGNLNTLVVKKSDVEAIFSKYGKIVGCSVHKGFAFVQYVNERNARAAVAGEDGRMIAGQVLDINLAAEPKVNRGKAGVKRSAAEMYGSVTEHPSPSPLLSSSFDLDYDFQRDYYDRMYSYPARVPPPPPIARAVVPSKRQRVSGNTSRRGKSGFNSKSGQRGSSKSGKLKGDDLQAIKKELTQIKQKVDSLLENLEKIEKEQSKQAVEMKNDKSEEEQSSSSVKKDETNVKMESEGGADDSAEEGDLLDDDDNEDRGDDQLELIKDDEKEAEEGEDDRDSANGEDDS [HNRNPC] is greater than or equal to -0.02 rule met

I'd appreciate it if you could say whether MKPGFSPRGGGFGGRGGFGDRGGRGGRGGFGGGRGRGGGFRGRGRGGGGGGGGGGGGGRGGGGFHSGGNRGRGRGGKRGNQSGKNVMVEPHRHEGVFICRGKEDALVTKNLVPGESVYGEKRVSISEGDDKIEYRAWNPFRSKLAAAILGGVDQIHIKPGAKVLYLGAASGTTVSHVSDIVGPDGLVYAVEFSHRSGRDLINLAKKRTNIIPVIEDARHPHKYRMLIAMVDVIFADVAQPDQTRIVALNAHTFLRNGGHFVISIKANCIDSTASAEAVFASEVKKMQQENMKPQEQLTLEPYERDHAVVVGVYRPPPKVKN [FBL] has thermal stability score at least equal to -0.02. rule not met

Can MSPRRTLPRPLSLCLSLCLCLCLAAALGSAQSGSCRDKKNCKVVFSQQELRKRLTPLQYHVTQEKGTESAFEGEYTHHKDPGIYKCVVCGTPLFKSETKFDSGSGWPSFHDVINSEAITFTDDFSYGMHRVETSCSQCGAHLGHIFDDGPRPTGKRYCINSAALSFTPADSSGTAEGGSGVASPAQADKAEL [MSRB3] be said to have thermal stability score at or above -0.02? rule not met

hey, is thermal stability score for this one >= -0.02? MDGLRQRVEHFLEQRNLVTEVLGALEAKTGVEKRYLAAGAVTLLSLYLLFGYGASLLCNLIGFVYPAYASIKAIESPSKDDDTVWLTYWVVYALFGLAEFFSDLLLSWFPFYYVGKCAFLLFCMAPRPWNGALMLYQRVVRPLFLRHHGAVDRIMNDLSGRALDAAAGITRNVLQVLARSRAGITPVAVAGPSTPLEADLKPSQTPQPKDK [REEP6] rule met

Is thermal stability score for MPGGLLLGDVAPNFEANTTVGRIRFHDFLGDSWGILFSHPRDFTPVCTTELGRAAKLAPEFAKRNVKLIALSIDSVEDHLAWSKDINAYNCEEPTEKLPFPIIDDRNRELAILLGMLDPAEKDEKGMPVTARVVFVFGPDKKLKLSILYPATTGRNFDEILRVVISLQLTAEKRVATPVDWKDGDSVMVLPTIPEEEAKKLFPKGVFTKELPSGKKYLRYTPQP [PRDX6] at or above -0.02? rule not met

Is the recorded value of thermal stability score equal to or greater than -0.02 for this substance? MSSLSGKVQTVLGLVEPSKLGRTLTHEHLAMTFDCCYCPPPPCQEAISKEPIVMKNLYWIQKNAYSHKENLQLNQETEAIKEELLYFKANGGGALVENTTTGISRDTQTLKRLAEETGVHIISGAGFYVDATHSSETRAMSVEQLTDVLMNEILHGADGTSIKCGIIGEIGCSWPLTESERKVLQATAHAQAQLGCPVIIHPGRSSRAPFQIIRILQEAGADISKTVMSHLDRTILDKKELLEFAQLGCYLEYDLFGTELLHYQLGPDIDMPDDNKRIRRVRLLVEEGCEDRILVAHDIHTKTRLMKYGGHGYSHILTNVVPKMLLRGITENVLDKILIENPKQWLTFK [PTER] rule not met

Kindly determine if thermal stability score recorded for MAATAREDGASGQERGQRGCEHYDRGCLLKAPCCDKLYTCRLCHDNNEDHQLDRFKVKEVQCINCEKIQHAQQTCEECSTLFGEYYCDICHLFDKDKKQYHCENCGICRIGPKEDFFHCLKCNLCLAMNLQGRHKCIENVSRQNCPICLEDIHTSRVVAHVLPCGHLLHRTCYEEMLKEGYRCPLCMHSALDMTRYWRQLDDEVAQTPMPSEYQNMTVDILCNDCNGRSTVQFHILGMKCKICESYNTAQAGGRRISLDQQ [RCHY1] is above or exactly -0.02. rule not met

====

Field: solubility change mitosis (log2). Provide a value for each of the sequences that follow.
- Test system: HeLa Kyoto
- Test protocol: solubility change mitosis vs G1/S (difference of NP-40 vs SDS log2 ratios) (log2 ratio difference); higher = more soluble in mitosis
Just the number, please.

Need solubility change mitosis (log2), item MDPLRAQQLAAELEVEMMADMYNRMTSACHRKCVPPHYKEAELSKGESVCLDRCVSKYLDIHERMGKKLTELSMQDEELMKRVQQSSGPA [TIMM10] 0.197

Item under review: MAAAVSSVVRRVEELGDLAQAHIQQLSEAAGEDDHFLIRASAALEKLKLLCGEEKECSNPSNLLELYTQAILDMTYFEENKLVDEDFPEDSSSQKVKELISFLSEPEILVKENNMHPKHCNLLGDELLECLSWRRGALLYMYCHSLTKRREWLLRKSSLLKKYLLDGISYLLQMLNYRCPIQLNEGVSFQDLDTAKLLSAGIFSDIHLLAMMYSGEMCYWGSKYCADQQPENHEVDTSVSGAGCTTYKEPLDFREVGEKILKKYVSVCEGPLKEQEWNTTNAKQILNFFHHRCN [C5ORF51] . Reported solubility change mitosis (log2)? -0.0335

Any idea what solubility change mitosis (log2) was measured for MDNYADLSDTELTTLLRRYNIPHGPVVGSTRRLYEKKIFEYETQRRRLSPPSSSAASSYSFSDLNSTRGDADMYDLPKKEDALLYQSKGYNDDYYEESYFTTRTYGEPESAGPSRAVRQSVTSFPDADAFHHQVHDDDLLSSSEEECKDRERPMYGRDSAYQSITHYRPVSASRSSLDLSYYPTSSSTSFMSSSSSSSSWLTRRAIRPENRAPGAGLGQDRQVPLWGQLLLFLVFVIVLFFIYHFMQAEEGNPF [EMD] ? 0.383

What does the data say about its solubility change mitosis (log2)? Entry: MNGFTPDEMSRGGDAAAAVAAVVAAAAAAASAGNGTGAGTGAEVPGAGAVSAAGPPGAAGPGPGQLCCLREDGERCGRAAGNASFSKRIQKSISQKKVKIELDKSARHLYICDYHKNLIQSVRNRRKRKGSDDDGGDSPVQDIDTPEVDLYQLQVNTLRRYKRHFKLPTRPGLNKAQLVEIVGCHFRSIPVNEKDTLTYFIYSVKNDKNKSDLKVDSGVH [SAP30] 0.267

Quick one: solubility change mitosis (log2) for MAAGDGDVKLGTLGSGSESSNDGGSESPGDAGAAAEGGGWAAAALALLTGGGEMLLNVALVALVLLGAYRLWVRWGRRGLGAGAGAGEESPATSLPRMKKRDFSLEQLRQYDGSRNPRILLAVNGKVFDVTKGSKFYGPAGPYGIFAGRDASRGLATFCLDKDALRDEYDDLSDLNAVQMESVREWEMQFKEKYDYVGRLLKPGEEPSEYTDEEDTKDHNKQD [PGRMC2] ? -0.00423

Request the reported solubility change mitosis (log2) associated with MPVAVGPYGQSQPSCFDRVKMGFVMGCAVGMAAGALFGTFSCLRIGMRGRELMGGIGKTMMQSGGTFGTFMAIGMGIRC [ROMO1] 0.0021

Field request: solubility change mitosis (log2) | item: MESNKDEAERCISIALKAIQSNQPDRALRFLEKAQRLYPTPRVRALIESLNQKPQTAGDQPPPTDTTHATHRKAGGTDAPSANGEAGGESTKGYTAEQVAAVKRVKQCKDYYEILGVSRGASDEDLKKAYRRLALKFHPDKNHAPGATEAFKAIGTAYAVLSNPEKRKQYDQFGDDKSQAARHGHGHGDFHRGFEADISPEDLFNMFFGGGFPSSNVHVYSNGRMRYTYQQRQDRRDNQGDGGLGVFVQLMPILILILVSALSQLMVSSPPYSLSPRPSVGHIHRRVTDHLGVVYYVGDTFSEEYTGSSLKTVERNVEDDYIANLRNNCWKEKQQKEGLLYRARYFGDTDMYHRAQKMGTPSCSRLSEVQASLHG [DNAJB12] -0.00489

What value of measured solubility change mitosis (log2) is listed for MAELGEADEAELQRLVAAEQQKAQFTAQVHHFMELCWDKCVEKPGNRLDSRTENCLSSCVDRFIDTTLAITSRFAQIVQKGGQ [TIMM8B] ? 0.734

Need solubility change mitosis (log2) of MDFLMSGLAACGACVFTNPLEVVKTRMQLQGELQAPGTYQRHYRNVFHAFITIGKVDGLAALQKGLAPALLYQFLMNGIRLGTYGLAEAGGYLHTAEGTHSPARSAAAGAMAGVMGAYLGSPIYMVKTHLQAQAASEIAVGHQYKHQGMFQALTEIGQKHGLVGLWRGALGGLPRVIVGSSTQLCTFSSTKDLLSQWEIFPPQSWKLALVAAMMSGIAVVLAMAPFDVACTRLYNQPTDAQGKGLMYRGILDALLQTARTEGIFGMYKGIGASYFRLGPHTILSLFFWDQLRSLYYTDTK [SLC25A35] , thanks. -0.137

What value of measured solubility change mitosis (log2) is listed for MASNVTNKTDPRSMNSRVFIGNLNTLVVKKSDVEAIFSKYGKIVGCSVHKGFAFVQYVNERNARAAVAGEDGRMIAGQVLDINLAAEPKVNRGKAGVKRSAAEMYGSVTEHPSPSPLLSSSFDLDYDFQRDYYDRMYSYPARVPPPPPIARAVVPSKRQRVSGNTSRRGKSGFNSKSGQRGSSKSGKLKGDDLQAIKKELTQIKQKVDSLLENLEKIEKEQSKQAVEMKNDKSEEEQSSSSVKKDETNVKMESEGGADDSAEEGDLLDDDDNEDRGDDQLELIKDDEKEAEEGEDDRDSANGEDDS [HNRNPC] ? 0.36

Bench note: what solubility change mitosis (log2) did MEKTLETVPLERKKREKEQFRKLFIGGLSFETTEESLRNYYEQWGKLTDCVVMRDPASKRSRGFGFVTFSSMAEVDAAMAARPHSIDGRVVEPKRAVAREESGKPGAHVTVKKLFVGGIKEDTEEHHLRDYFEEYGKIDTIEIITDRQSGKKRGFGFVTFDDHDPVDKIVLQKYHTINGHNAEVRKALSRQEMQEVQSSRSGRGGNFGFGDSRGGGGNFGPGPGSNFRGGSDGYGSGRGFGDGYNGYGGGPGGGNFGGSPGYGGGRGGYGGGGPGYGNQGGGYGGGYDNYGGGNYGSGNYNDFGNYNQQPSNYGPMKSGNFGGSRNMGGPYGGGNYGPGGSGGSGGYGGRSRY [HNRNPA2B1] show? 0.321

I have this sequence here, MPKGGRKGGHKGRARQYTSPEEIDAQLQAEKQKAREEEEQKEGGDGAAGDPKKEKKSLDSDESEDEEDDYQQKRKGVEGLIDIENPNRVAQTTKKVTQLDLDGPKELSRREREEIEKQKAKERYMKMHLAGKTEQAKADLARLAIIRKQREEAARKKEEERKAKDDATLSGKRMQSLSLNK [PDAP1] , and I need its recorded solubility change mitosis (log2). 0.473
